Overview of recorded Kd for various binders
Experimental target: T1, human IL-11 (human, UniProt P20809 22-199)
T1 construct: bought from Invigate; also called hIL-11; hIL11
T1 sequence: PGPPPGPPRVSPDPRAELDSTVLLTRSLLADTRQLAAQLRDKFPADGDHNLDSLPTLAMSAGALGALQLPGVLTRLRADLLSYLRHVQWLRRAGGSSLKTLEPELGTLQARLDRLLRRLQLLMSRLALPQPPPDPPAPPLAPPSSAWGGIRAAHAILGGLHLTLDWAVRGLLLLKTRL
Experiment description: SPR; limit told of 12 single-site germlining mutants; antigen not given, SPR run on human and mouse IL-11
Measured attribute: Kd

TPP-31284 (antibody, IgG4, V domains shown, hIgG4 SPLE, lambda) VH: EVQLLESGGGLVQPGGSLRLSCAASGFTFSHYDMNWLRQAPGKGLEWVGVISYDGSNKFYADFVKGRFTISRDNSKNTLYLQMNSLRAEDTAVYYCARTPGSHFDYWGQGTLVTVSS VL: QSVLTQPPSASGTPGQRVTISCSGSSSNIGNNAVNWYQQLPGTAPKLLIYYDDLRPSGVPDRFSGSKSGTSASLAISGLRSEDEADYYCSAWDDSLNGVVFGGGTKLTVL    < 19 nM
TPP-31292 (antibody, IgG4, V domains shown, hIgG4 SPLE, lambda) VH: EVQLLESGGGLVQPGGSLRLSCAASGFTFSHYDMHWLRQAPGKGLEWVGVISYDGSNKFYADFVKGRFTISRDNSKNTLYLQMNSLRAEDTAVYYCARTPGSHFDYWGQGTLVTVSS VL: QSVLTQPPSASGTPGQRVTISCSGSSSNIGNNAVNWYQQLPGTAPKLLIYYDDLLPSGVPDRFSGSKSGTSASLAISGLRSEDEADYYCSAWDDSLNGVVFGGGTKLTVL    < 19 nM
TPP-31285 (antibody, IgG4, V domains shown, hIgG4 SPLE, lambda) VH: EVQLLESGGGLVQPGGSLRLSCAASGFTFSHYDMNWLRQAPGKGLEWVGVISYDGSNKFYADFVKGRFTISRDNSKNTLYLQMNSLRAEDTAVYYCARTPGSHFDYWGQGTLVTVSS VL: QSVLTQPPSASGTPGQRVTISCSGSSSNIGNNAVNWYQQLPGTAPKLLIYYDDLLPSGVPDRFSGSKSGTSASLAISGLRSEDEADYYCAAWDDSLNGVVFGGGTKLTVL    < 19 nM

Where do the numbers come from? From patent US20240317847A1.
